# study_system: CEP55 EABR (Homo sapiens)
# Sequence (Q53EZ4 160-214 limits assumed): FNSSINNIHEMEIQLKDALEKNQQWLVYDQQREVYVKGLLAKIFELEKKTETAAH
# assay_summary: biochemical
# Assay type: binding
pKd: −log10 of the molar value. No end group written: not given here.
Known pKd of a selection of sequences

* QAQGPPYPTYPGYPGY [PDCD6IP 797-812 (Human)] | ~6.52

The reported value for LAVGPPSLNYIPPVLQ [TEX14 792-807 (Human)] in terms of pKd is ~6.52

---

# study_system: AP2M1 MHD (Homo sapiens, UniProt Q96CW1)
# Sequence (Q96CW1 170-434 limits assumed): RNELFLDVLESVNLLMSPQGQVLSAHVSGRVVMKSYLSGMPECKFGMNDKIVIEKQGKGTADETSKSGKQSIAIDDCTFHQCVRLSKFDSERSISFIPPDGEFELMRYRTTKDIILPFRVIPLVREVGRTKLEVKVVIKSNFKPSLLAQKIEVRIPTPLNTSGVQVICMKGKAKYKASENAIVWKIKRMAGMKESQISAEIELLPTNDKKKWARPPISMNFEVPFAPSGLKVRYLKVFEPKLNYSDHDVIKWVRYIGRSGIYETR
# assay_summary: biochemical
# Assay type: binding
No end group written: not given here.
property_name: Kd (nM)
Response body: numeric value in nM, unit text excluded.

Query PTDSNFYRALMDEEDM [EGFR 992-1007 (Human)] yields Kd of 2400

---

# study_system: NEDD4 WW4 (Homo sapiens)
# Sequence (P46934 892-925 limits assumed): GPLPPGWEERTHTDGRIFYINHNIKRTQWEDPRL
# assay_summary: biochemical
# Format: binding
No end group written: not given here.
Catalogue of Kd values
Give a bare numeral; the unit µM is implied.

Consider EPDQEPPPPYQEQVPV [RNF11 31-56 (Human)] . Its measured Kd is 44

response.value for EPDQEPPPPYQEQVPVPVYHPTPSQ [RNF11 31-65 (Human)] (field: Kd) = 35

---

# peptide_counts_proportion per record follows
# Tested on: 139 human bait protein domains
# Assay type: binding
# measurement_context: bait YAP1 WW-2 (P46937, 228-266); replicate 3 (third entry of cell)
Lab note: record the figure alone, no unit after it.

Worked examples, 3 sequences total:
* AELNPPPYNHSYESLH | 0.028
* VTVPTAPPAYADIGYP | 0.021
* LPPPEYVPLHEISSKG | 0.029

Turning to the following sequence.
// peptide_counts_proportion lookup, sequence = `TAPPAYADIGYPMSML` , result: 0.416

---

We begin with a simple list: items and their reported RiboVD_mean_counts.
# System: 139 human bait protein domains
# Type: binding
# measurement_context: bait YAP1 WW-2 (P46937, 228-266); mean sequencing counts over replicate selections
Write the value as a bare number.

Below are worked cases with known answers.
• AELNPPPYNHSYESLH = 1834
• VTVPTAPPAYADIGYP = 10451.3
• TAPPAYADIGYPMSML = 4550

Shift focus to the following entry.
Input `LPPPEYVPLHEISSKG` . Output RiboVD_mean_counts: 729

---

# System: 139 human bait protein domains
# Assay type: binding
# measurement_context: bait YAP1 WW-2 (P46937, 228-266); replicate 1 (first entry of cell)
Listed sequences paired with reported peptide_counts_proportion

// returns peptide_counts_proportion for `VTVPTAPPAYADIGYP` with 139 human bait protein domains; value = 0.298

---

# System: 139 human bait protein domains
# Assay type: binding
# measurement_context: bait YAP1 WW-2 (P46937, 228-266); replicate 1 (first entry of cell)
Listed here are sequences together with their documented peptide_counts_proportion.
API note: the answer field is a bare number with no unit suffix.

Reference set (2 entries):
- TAPPAYADIGYPMSML: 0.002
- AELNPPPYNHSYESLH: 0.005

Memo: `LPPPEYVPLHEISSKG` , reported peptide_counts_proportion: 0.029
